species on record: Homo sapiens; test: Selectivity ratio of Kd for partial length human BRD3 bromodomain 2 to Kd for partial length human BRD4 bromodomain 1
Selectivity ratio of 2 or higher: true. Under 2: false.

Recorded results for 3 molecules are shown here.
CCc1c(C(=O)Nc2cc(S(=O)(=O)N(CC)CC)ccc2O)[nH]c(C)c1C(=O)CO    false
CCc1c(C(=O)Nc2ccc(F)c(S(=O)(=O)N3CCOCC3)c2)[nH]c(C)c1C(C)=O    true
CCc1c(C(=O)N(C)Cc2cccc(C(N)=O)c2)[nH]c(C)c1C(C)=O    false

Please indicate if the recorded Selectivity ratio for CCc1c(C(=O)Nc2cc(S(=O)(=O)N(CC)CC)ccc2O)[nH]c(C)c1C(C)=O meets or exceeds 2.
true

Please indicate if the recorded Selectivity ratio for CCc1c(C(=O)Nc2cccc(OCC(N)=O)c2)[nH]c(C)c1C(C)=O meets or exceeds 2.
true

###

molecular target: Bromodomain-containing protein 3 (Homo sapiens); experiment: Binding affinity to partial length human BRD3 bromodomain 1 by isothermal titration calorimetry
Sequence (Q15059 whole entry): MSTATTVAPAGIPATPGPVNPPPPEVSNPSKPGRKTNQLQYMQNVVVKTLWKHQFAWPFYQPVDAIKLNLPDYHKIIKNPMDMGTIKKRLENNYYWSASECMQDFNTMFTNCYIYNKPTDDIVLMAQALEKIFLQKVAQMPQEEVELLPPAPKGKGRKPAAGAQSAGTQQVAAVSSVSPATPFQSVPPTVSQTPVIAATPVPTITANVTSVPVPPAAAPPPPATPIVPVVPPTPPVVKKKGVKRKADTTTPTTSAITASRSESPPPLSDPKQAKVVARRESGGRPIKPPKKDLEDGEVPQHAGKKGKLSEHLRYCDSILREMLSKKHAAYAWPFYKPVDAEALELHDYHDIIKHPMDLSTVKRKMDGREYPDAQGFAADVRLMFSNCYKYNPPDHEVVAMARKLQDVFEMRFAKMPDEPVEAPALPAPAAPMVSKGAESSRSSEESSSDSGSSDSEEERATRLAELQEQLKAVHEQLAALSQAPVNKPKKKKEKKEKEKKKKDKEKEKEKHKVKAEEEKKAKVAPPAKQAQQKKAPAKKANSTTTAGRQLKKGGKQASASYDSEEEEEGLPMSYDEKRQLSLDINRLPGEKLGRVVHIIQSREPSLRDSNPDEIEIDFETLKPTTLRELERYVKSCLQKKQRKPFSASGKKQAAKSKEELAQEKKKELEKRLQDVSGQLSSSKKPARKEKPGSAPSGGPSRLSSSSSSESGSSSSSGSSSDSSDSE
READOUT NAME: Kd (µM)
Please state the figure in µM; there is no need to write the unit.

A selection of reference data follows.
CCc1c(C(=O)Nc2cc(S(=O)(=O)N(CC)CC)ccc2O)[nH]c(C)c1C(=O)CO    4.9
CCc1c(C(=O)Nc2cc(S(=O)(=O)N(CC)CC)ccc2O)[nH]c(C)c1C(C)=O    2.9
CCc1c(C(=O)N(C)Cc2cccc(C(N)=O)c2)[nH]c(C)c1C(C)=O    50
CCc1c(C(=O)Nc2cccc(OCC(N)=O)c2)[nH]c(C)c1C(C)=O    41

Consider now this further compound.
GET /values?readout=Kd&item= CCc1c(C(=O)Nc2ccc(F)c(S(=O)(=O)N3CCOCC3)c2)[nH]c(C)c1C(C)=O
6.1

###

Measured Kd accompanies every entry in the list below.
target: Bromodomain-containing protein 4 (Homo sapiens, UniProt O60885); assay: Binding affinity to partial length human BRD4 bromodomain 1 by isothermal titration calorimetry
Please state the figure in µM; there is no need to write the unit.

A selection of reference data follows.
CCN(CC)S(=O)(=O)c1ccc(O)c(NC(=O)c2[nH]c(C)c(C(C)=O)c2C(C)C)c1    7.2
CCc1c(C(=O)Nc2cc(S(=O)(=O)N(CC)CC)ccc2O)[nH]c(C)c1C(=O)CO    7.9

GET /values?readout=Kd&item= CCc1c(C(=O)Nc2cc(S(=O)(=O)N(CC)CC)ccc2O)[nH]c(C)c1C(C)=O
0.24

GET /values?readout=Kd&item= CCc1c(C(=O)Nc2cc(S(=O)(=O)NC)ccc2C)[nH]c(C)c1C(C)=O
9.2

GET /values?readout=Kd&item= CCc1c(C(=O)N(C)Cc2cccc(C(N)=O)c2)[nH]c(C)c1C(C)=O
12

GET /values?readout=Kd&item= CCc1c(C(=O)Nc2cc(S(=O)(=O)N(CC)CC)c(C)cc2O)[nH]c(C)c1C(C)=O
0.88

GET /values?readout=Kd&item= CCc1c(C(=O)Nc2cc(S(=O)(=O)N(CC)CC)ccc2O)[nH]c(C)c1C(N)=O
0.81

GET /values?readout=Kd&item= CCc1c(C(=O)N2CCc3ccc(S(=O)(=O)NC)cc32)[nH]c(C)c1C(C)=O
7.4

GET /values?readout=Kd&item= CCc1c(C(=O)Nc2cccc(C(=O)N(CC)CC)c2)[nH]c(C)c1C(C)=O
6.8
